Attribution: paper PMC10786919

Experiment: Experimental LogD (partition coefficient)
observable: logD
Lab note: jot down the number only; don't add units.

Please look at this compound and report its logD: CC(C)[C@@H](CS(=O)(=O)C(C)C)N1C(=O)[C@@](C)(CC(=O)O)C[C@H](c2cccc(Cl)c2)[C@H]1c1ccc(Cl)cc1 [AMG232]
2.25

* * *

Assay: in vitro
Conditions: Nanoclick permeability assay EC50
Positions of bridges follow the written chain, without caps; N, C: chain ends. Non-standard residues stand in square brackets, D forms with d. Residues, ends and D or L forms follow the SMILES beside them. Lys(N3) = [N-]=[N+]=NCCCC[C@H](N)C(=O)O; R8 = C=CCCCCCC[C@@](C)(N)C(=O)O; Cba = N[C@@H](CC1CCC1)C(=O)O; S5 = C=CCCC[C@](C)(N)C(=O)O; βAla = NCCC(=O)O
observable: cell entry EC50

Retrieve cell entry EC50 measured for CC(C)C[C@H](NC(=O)CCNC(=O)[C@@H](N)CCCCN=[N+]=[N-])C(=O)N[C@H](C(=O)N[C@@H](Cc1ccccc1)C(=O)N[C@]1(C)CCCCCCC=CCCC[C@@](C)(C(N)=O)NC(=O)[C@H](CC2CCC2)NC(=O)[C@H](CC(C)C)NC(=O)[C@H](CCC(N)=O)NC(=O)[C@H](Cc2c[nH]c3ccccc23)NC(=O)[C@H](Cc2ccc(O)cc2)NC(=O)[C@H](CCC(=O)O)NC1=O)[C@@H](C)O [MP-329] (H-[Lys(N3)][βAla]LTF[R8]EYWQL[Cba][S5]-NH2; staple 6-13) and print it.
2690 nM

* * *

# Lookup of reported LDH: Cytotoxicity assay % Effect keyed by entry
System: HCT116 cells
Test: Lactate dehydrogenase (LDH) release assay
Assay type: cell-based
Settings: 0% FBS 4Hr
Positions of bridges follow the written chain, without caps; N, C: chain ends. Non-standard residues stand in square brackets, D forms with d. Residues, ends and D or L forms follow the SMILES beside them. R8 = C=CCCCCCC[C@@](C)(N)C(=O)O; Cba = N[C@@H](CC1CCC1)C(=O)O; S5 = C=CCCC[C@](C)(N)C(=O)O
Express the result in % but write the number alone.

CC(=O)N[C@@H](CCCCN=[N+]=[N-])C(=O)NCCC(=O)N[C@@H](CC(C)C)C(=O)N[C@H](C(=O)N[C@@H](Cc1ccccc1)C(=O)N[C@]1(C)CCCCCCC=CCCC[C@@](C)(C(=O)N[C@@H](CO)C(=O)N[C@@H](C)C(=O)N[C@@H](C)C(N)=O)NC(=O)[C@H](CC2CCC2)NC(=O)[C@H](Cc2c[nH]cn2)NC(=O)[C@H](C)NC(=O)[C@H](Cc2c[nH]c3ccccc23)NC(=O)[C@H](Cc2ccc(O)cc2)NC(=O)[C@H](CCC(=O)O)NC1=O)[C@@H](C)O [MP-176, AZIDE-ATSP-7041 (Q9H)]    5.39

# next compound below
Give reported LDH: Cytotoxicity assay % Effect value for CC(=O)N[C@@H](CC(C)C)C(=O)N[C@H](C(=O)N[C@@H](Cc1ccccc1)C(=O)N[C@]1(C)CCCCCCC=CCCC[C@@](C)(C(=O)N[C@@H](CO)C(=O)N[C@@H](C)C(=O)N[C@@H](C)C(N)=O)NC(=O)[C@H](CC2CCC2)NC(=O)[C@H](CC(C)C)NC(=O)[C@H](CCC(N)=O)NC(=O)[C@H](Cc2c[nH]c3ccccc23)NC(=O)[C@H](Cc2ccc(O)cc2)NC(=O)[C@H](Cc2c[nH]cn2)NC1=O)[C@@H](C)O [MP-199, ATSP-7041 (E5H)] (Ac-LTF[R8]HYWQL[Cba][S5]SAA-NH2; staple 4-11)
4.035

* * *

Catalogue of molecules with associated cell entry EC50
Assay: Nanoclick permeability assay
Protocol: Further, there have been several literature reports[18]–[20] that highlight that the combination of hydrophobic character and positive charge can result in mast cell degranulation (MCD), a potentially fatal condition[18]–[20]. […] This assay was previously described in detail. […] Following addition of NanoBRET Nano-Glo Substrate, donor emission (450 nm) and acceptor emission (610 nm) were measured using an Envision instrument (PerkinElmer).
Numeric answer only, unit nM assumed.

CC(=O)N[C@@H](CCCCN=[N+]=[N-])C(=O)NCCC(=O)N[C@@H](CC(C)C)C(=O)N[C@H](C(=O)N[C@@H](Cc1ccccc1)C(=O)N[C@]1(C)CCCCCCC=CCCC[C@@](C)(C(=O)N[C@@H](CO)C(=O)N[C@@H](C)C(=O)N[C@@H](C)C(N)=O)NC(=O)[C@H](CC2CCC2)NC(=O)[C@H](CCC(N)=O)NC(=O)[C@H](C)NC(=O)[C@H](Cc2c[nH]c3ccccc23)NC(=O)[C@H](Cc2ccc(O)cc2)NC(=O)[C@H](Cc2c[nH]cn2)NC1=O)[C@@H](C)O [MP-175, AZIDE-ATSP-7041 (E5H)]    316

Turning now to a further record.
Identify cell entry EC50 associated with the molecule CC(=O)N[C@@H](CCCCN=[N+]=[N-])C(=O)NCCC(=O)N[C@@H](CC(C)C)C(=O)N[C@H](C(=O)N[C@@H](Cc1ccccc1)C(=O)N[C@]1(C)CCCCCCC=CCCC[C@@](C)(C(=O)N[C@@H](CO)C(=O)N[C@@H](C)C(=O)N[C@@H](C)C(N)=O)NC(=O)[C@H](CC2CCC2)NC(=O)[C@H](CCC(N)=O)NC(=O)[C@H](C)NC(=O)[C@H](C)NC(=O)[C@H](Cc2ccc(O)cc2)NC(=O)[C@H](CCC(=O)O)NC1=O)[C@@H](C)O [MP-893, AZIDE-ATSP-7041(W7A)]
1230

* * *

Test: in vitro
Details: Nanoclick permeability assay EC50
Positions of bridges follow the written chain, without caps; N, C: chain ends. Non-standard residues stand in square brackets, D forms with d. Residues, ends and D or L forms follow the SMILES beside them. Lys(N3) = [N-]=[N+]=NCCCC[C@H](N)C(=O)O; R8 = C=CCCCCCC[C@@](C)(N)C(=O)O; Cba = N[C@@H](CC1CCC1)C(=O)O; S5 = C=CCCC[C@](C)(N)C(=O)O; βAla = NCCC(=O)O
Known cell entry EC50 of a selection of compounds
Numbers only here, please. The scale is nM.

CC(=O)N[C@@H](CCCCN=[N+]=[N-])C(=O)NCCC(=O)N[C@@H](CC(C)C)C(=O)N[C@H](C(=O)N[C@@H](Cc1ccccc1)C(=O)N[C@]1(C)CCCCCCC=CCCC[C@@](C)(C(=O)N[C@@H](CO)C(=O)N[C@@H](C)C(=O)N[C@@H](C)C(N)=O)NC(=O)[C@H](CC2CCC2)NC(=O)[C@H](CCC(N)=O)NC(=O)[C@H](C)NC(=O)[C@H](Cc2c[nH]c3ccccc23)NC(=O)[C@H](Cc2ccc(O)cc2)NC(=O)CNC1=O)[C@@H](C)O [MP-210] (Ac-[Lys(N3)][βAla]LTF[R8]GYWAQ[Cba][S5]SAA-NH2; staple 6-13)    279

Attention now turns to another entry.
Could you please provide reported cell entry EC50 for `CC(=O)N[C@@H](CCCCN=[N+]=[N-])C(=O)NCCC(=O)N[C@@H](CC(C)C)C(=O)N[C@H](C(=O)N[C@@H](Cc1ccccc1)C(=O)N[C@]1(C)CCCCCCC=CCCC[C@@](C)(C(=O)N2CCC[C@H]2C(=O)N2CCC[C@H]2C(=O)N2CCC[C@H]2C(=O)N2CCC[C@H]2C(=O)N2CCC[C@H]2C(=O)N2CCC[C@H]2C(N)=O)NC(=O)[C@H](CC2CCC2)NC(=O)[C@H](CCC(N)=O)NC(=O)[C@H](C)NC(=O)[C@H](Cc2c[nH]c3ccccc23)NC(=O)[C@H](Cc2ccc(O)cc2)NC(=O)[C@H](CCC(=O)O)NC1=O)[C@@H](C)O` ? Thanks!
1380

* * *

Tested on: HCT116 cells
Assay: Lactate dehydrogenase (LDH) release assay
Assay type: cell-based
Conditions: 0% FBS 16Hr
Positions of bridges follow the written chain, without caps; N, C: chain ends. Non-standard residues stand in square brackets, D forms with d. Residues, ends and D or L forms follow the SMILES beside them. R8 = C=CCCCCCC[C@@](C)(N)C(=O)O; Cba = N[C@@H](CC1CCC1)C(=O)O; S5 = C=CCCC[C@](C)(N)C(=O)O
observable: LDH: Cytotoxicity assay % Effect (%)
Value expressed in %; do not type the unit.

Sample answers from the record:
CC(=O)N[C@@H](CC(C)C)C(=O)N[C@@H](Cc1c[nH]cn1)C(=O)N[C@@H](Cc1ccccc1)C(=O)N[C@]1(C)CCCCCCC=CCCC[C@@](C)(C(=O)N[C@@H](CO)C(=O)N[C@@H](C)C(=O)N[C@@H](C)C(N)=O)NC(=O)[C@H](CC2CCC2)NC(=O)[C@H](CC(C)C)NC(=O)[C@H](CCC(N)=O)NC(=O)[C@H](Cc2c[nH]c3ccccc23)NC(=O)[C@H](Cc2ccc(O)cc2)NC(=O)[C@H](CCC(=O)O)NC1=O [MP-198, ATSP-7041 (T2H)] (Ac-LHF[R8]EYWQL[Cba][S5]SAA-NH2; staple 4-11)    -3.86
CC(=O)N[C@@H](CCCCN=[N+]=[N-])C(=O)NCCC(=O)N[C@@H](CCCCN)C(=O)N[C@H](C(=O)N[C@@H](Cc1ccccc1)C(=O)N[C@]1(C)CCCCCCC=CCCC[C@@](C)(C(=O)N[C@@H](CO)C(=O)N[C@@H](C)C(=O)N[C@@H](C)C(N)=O)NC(=O)[C@H](CC2CCC2)NC(=O)[C@H](CCC(N)=O)NC(=O)[C@H](C)NC(=O)[C@H](Cc2c[nH]c3ccccc23)NC(=O)[C@H](Cc2ccc(O)cc2)NC(=O)[C@H](CCC(=O)O)NC1=O)[C@@H](C)O [MP-546, AZIDE-ATSP-7041 (L1K)]    13.56
CC(=O)N[C@@H](CCCCN=[N+]=[N-])C(=O)NCCC(=O)N[C@@H](CC(C)C)C(=O)N[C@H](C(=O)N[C@@H](Cc1ccccc1)C(=O)N[C@]1(C)CCCCCCC=CCCC[C@@](C)(C(=O)N[C@@H](CO)C(=O)N[C@@H](C)C(=O)N[C@@H](C)C(N)=O)NC(=O)[C@H](CC2CCC2)NC(=O)[C@H](CCC(N)=O)NC(=O)[C@H](CCCCN)NC(=O)[C@H](Cc2c[nH]c3ccccc23)NC(=O)[C@H](Cc2ccc(O)cc2)NC(=O)[C@H](CCC(=O)O)NC1=O)[C@@H](C)O [MP-549, AZIDE-ATSP-7041 (A8K)]    45.26
CC(=O)N[C@@H](CCCCN=[N+]=[N-])C(=O)NCCC(=O)N[C@@H](C)C(=O)N[C@H](C(=O)N[C@@H](Cc1ccccc1)C(=O)N[C@]1(C)CCCCCCC=CCCC[C@@](C)(C(=O)N[C@@H](CO)C(=O)N[C@@H](C)C(=O)N[C@@H](C)C(N)=O)NC(=O)[C@H](CC2CCC2)NC(=O)[C@H](CCC(N)=O)NC(=O)[C@H](C)NC(=O)[C@H](Cc2c[nH]c3ccccc23)NC(=O)[C@H](Cc2ccc(O)cc2)NC(=O)[C@H](CCC(=O)O)NC1=O)[C@@H](C)O [MP-952, AZIDE-ATSP-7041 (L1A)]    8.95

For `CC(=O)N[C@@H](CCCCN=[N+]=[N-])C(=O)NCCC(=O)NC(C)(C)C(=O)N[C@H](C(=O)N[C@@H](Cc1ccccc1)C(=O)N[C@]1(C)CCCCCCC=CCCC[C@@](C)(C(=O)N[C@@H](CO)C(=O)N[C@@H](C)C(=O)N[C@@H](C)C(N)=O)NC(=O)[C@H](CC2CCC2)NC(=O)[C@H](CCC(N)=O)NC(=O)[C@H](C)NC(=O)[C@H](Cc2c[nH]c3ccccc23)NC(=O)[C@H](Cc2ccc(O)cc2)NC(=O)[C@H](CCC(=O)O)NC1=O)[C@@H](C)O` , write its LDH: Cytotoxicity assay % Effect.
11.59

Specify reported LDH: Cytotoxicity assay % Effect for the molecule shown: CC(=O)N[C@@H](CCCCN=[N+]=[N-])C(=O)NCCC(=O)N[C@@H](CC(C)C)C(=O)N[C@@H](Cc1c[nH]cn1)C(=O)N[C@@H](Cc1ccccc1)C(=O)N[C@]1(C)CCCCCCC=CCCC[C@@](C)(C(=O)N[C@@H](CO)C(=O)N[C@@H](C)C(=O)N[C@@H](C)C(N)=O)NC(=O)[C@H](CC2CCC2)NC(=O)[C@H](CCC(N)=O)NC(=O)[C@H](C)NC(=O)[C@H](Cc2c[nH]c3ccccc23)NC(=O)[C@H](Cc2ccc(O)cc2)NC(=O)[C@H](CCC(=O)O)NC1=O [MP-174, AZIDE-ATSP-7041 (T2H)]
21.18

Name the recorded LDH: Cytotoxicity assay % Effect of the item CC(=O)N[C@@H](CCCCN=[N+]=[N-])C(=O)NCCC(=O)N[C@@H](CC(C)C)C(=O)N[C@H](C(=O)N[C@@H](Cc1ccccc1)C(=O)N[C@]1(C)CCCCCCC=CCCC[C@@](C)(C(=O)N[C@@H](CO)C(=O)N[C@@H](C)C(=O)N[C@@H](C)C(N)=O)NC(=O)[C@H](CC2CCC2)NC(=O)[C@H](CCCCN)NC(=O)[C@H](C)NC(=O)[C@H](Cc2c[nH]c3ccccc23)NC(=O)[C@H](Cc2ccc(O)cc2)NC(=O)[C@H](CCC(=O)O)NC1=O)[C@@H](C)O [MP-550, AZIDE-ATSP-7041 (Q9K)] in your answer.
4.1

Tell me LDH: Cytotoxicity assay % Effect reported for CC(=O)N[C@@H](CCCCN=[N+]=[N-])C(=O)NCCC(=O)N[C@@H](CC(C)C)C(=O)N[C@H](C(=O)N[C@@H](Cc1ccccc1)C(=O)N[C@]1(C)CCCCCCC=CCCC[C@@](C)(C(=O)N[C@@H](CO)C(=O)N[C@@H](C)C(=O)N[C@@H](C)C(N)=O)NC(=O)[C@H](CC2CCC2)NC(=O)[C@H](CCC(N)=O)NC(=O)[C@H](C)NC(=O)[C@H](Cc2c[nH]c3ccccc23)NC(=O)[C@H](Cc2ccc(O)cc2)NC(=O)[C@H](Cc2c[nH]cn2)NC1=O)[C@@H](C)O [MP-175, AZIDE-ATSP-7041 (E5H)]
7.95
